- experimental_target: T1, human BCMA-hFc kih monovalent recombinant protein (human, UniProt P0DOX5 223-449 = IgG part)
- T1 construct: Knob-into-hole heterodimer with one BCMA arm, expressed in HEK293E; also called human BCMA-hFc recombinant protein
- protocol_description: SPR (Biacore T200), BCMA-hFc captured on Protein A chip, Fab as analyte, 1:1 Langmuir
- Text: Kinetic constants were fitted using Biacore T200 evaluation software with a Langmuir 1:1 kinetics model.
property_measured: pKd
A value of pKd is the negative decimal logarithm of a concentration given in moles per litre.

binder	pKd
23G9 Fab (Fab, V domains shown, Murine BCMA Fab, Ni-NTA purified) VH: EVQLQQSGTVLTRPGASVKLSCKASGYSFSSYWMHWLKQRPGQGLEWIGAIYPGNSRTTYNQKFKGEAKLTADTSASTAYMDLSSLTNADSAVYFCTREETYWGQGTLVTVSA VL: DVVMTQTPLSLSVTIGQPASISCKSSQGLLDSYGVTYLNWLFQRPGQPPKRLIYLVSELDSGVPDRFTGSGSGTDFTLRISRVEAEDLGIYYCWQGSHFPLTFGAGTKLELK	7.11
3G11 Fab (Fab, V domains shown, Murine BCMA Fab from phage library, expressed in TG1 periplasm, purified by Ni-NTA) VH: EIQLVQSGPELKKPGETVKISCKASGYIFTNFGMNWVRQAPGKALKWMGWINTYTGEQIYADDFKGRFAFSLETSASTAYLQINNLKNEDTATYFCARGEIYYGYDVGFVYWGQGTLVTVSA VL: DIVLTQSPASLTVSLGQRATISCRASKSVSTSGYSYMHWYQQKPGQPPKLLIYLASDLESGVSARFSGSGSGTDFTLNIHPVEEEDAATYYCQHSRELPWTFGGGTKLEIK	7.89
38D9 Fab (Fab, V domains shown, Murine BCMA Fab, Ni-NTA purified) VH: EVQLQQSGPELKKPGETVKISCKASGYIFTNFGMNWVRQAPGKALKWMGWINTYTGEQIYADDFKGRFAFSLETSASTAYLQINNLKNEDTATYFCARGEIYYGYDVGFVYWGQGTLVTVSA VL: DIVLTQSPASLTVSLGQRATISCGASKSVSTSGYSYMHWYQQKPGQPPKLLIYLGSDLESGVPARFSGSGSGTDFTLNIHPVEEEDAATYYCQHSRELPWTFGGGTKLEIK	8.25
40C6 Fab (Fab, V domains shown, Murine BCMA Fab, Ni-NTA purified) VH: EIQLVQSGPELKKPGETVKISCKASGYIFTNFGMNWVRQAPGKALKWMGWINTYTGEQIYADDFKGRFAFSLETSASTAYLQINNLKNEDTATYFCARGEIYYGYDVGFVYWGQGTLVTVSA VL: DIVLTQSPASLAISLGQRATISCRASRSVTTSGYSYIHWYQQKPGQPPKLLIYLASDLEAGVPARFSGSGSGTDFTLNIHPVEEEDAATYYCQHSRELPWTFGGGTKLEIK	8.19
34G2 Fab (Fab, V domains shown, Murine BCMA Fab, Ni-NTA purified) VH: EVQLQQSGPELRKPGETVKISCKASGYTFTNYGMNWVKQTPGKGLKWMGWINTYTGERIYADDFKGRFAFSLETSASTAYLQINNLKNEDTATYFCARGEIYYGYDVGFVYWGQGTLVTVSA VL: DIVLTQSPASLVVSLGQRATISCRASKSVSTSGYSYMHWYQQKPGQPPKLLIYLASNLESGVPARFSGSGSGTDFTLNIHPVEEEDAATYYCQHSRELPWTFGGGTRLEIK	8.30
29A11 Fab (Fab, V domains shown, Murine BCMA Fab, Ni-NTA purified) VH: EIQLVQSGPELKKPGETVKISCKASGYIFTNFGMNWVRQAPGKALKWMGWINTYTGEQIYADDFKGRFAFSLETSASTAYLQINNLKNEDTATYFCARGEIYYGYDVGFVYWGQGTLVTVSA VL: DIVLTQSPASLAVSLGQRATISCRASKSVSTSGYSYMHWYQQKPGQPPKLLIYLASNLESGVPARFSGSGSGTDFTLNIHPVEEEDAATYYCQHSRELPWTFGGGTKLEIK	8.49
15H10 Fab (Fab, V domains shown, Murine BCMA Fab, Ni-NTA purified) VH: EVQLQQSGPELKKPGETVKISCKASGYTFTNFGMNWVRQTPGKALKWMGWINTYTGDLIYGDDFKGRFAFSLETSASTAYLQINNLKNEDTATYFCARGEIYYGYDVGFAYWGQGTLVTVSA VL: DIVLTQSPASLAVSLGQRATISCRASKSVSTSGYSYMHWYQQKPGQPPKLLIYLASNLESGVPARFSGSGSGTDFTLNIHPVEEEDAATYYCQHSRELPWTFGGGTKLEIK	7.74
15G9 Fab (Fab, V domains shown, Murine BCMA Fab, Ni-NTA purified) VH: QVQLQQSGPELVKPGASVNLSCKASGYTFTNYVIHWVKQKPGQGLEWIGYTIPYTDVTKYNEKFKAKATLTSDKSSSTAFMELSSLTSEDSAVYYCARYDFDGYFDYWGQGTTLTVSS VL: DIVMTQAAFSNPVTLGTSASISCRSSKSLLHSNGITYLYWYLQKPGQSPQLLIYQMSNLASGVPDRFSSSGSGTDFTLRISRVEAEDVGVYYCAQNLELPWTFGGGTKLELK	7.91
6G5 Fab (Fab, V domains shown, Murine BCMA Fab, Ni-NTA purified) VH: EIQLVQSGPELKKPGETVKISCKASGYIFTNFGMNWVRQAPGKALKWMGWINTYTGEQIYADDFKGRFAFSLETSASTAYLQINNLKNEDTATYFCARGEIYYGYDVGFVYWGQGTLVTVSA VL: DIVLTQSPASLAISLGQRATISCRASKSVTTSGYSYIHWYQQKPGQPPKLLIYLASDLEAGVPARFSGSGSGTDFTLNIHPVEEEDAATYYCQHSRELPWTFGGGTKLELK	8.68

Recorded pKd for 38E2 Fab (Fab, V domains shown, Murine BCMA Fab, Ni-NTA purified) VH: QVQLQQSGAELVRPGTSVKMSCKAAGYTFTNYWIGWVKQRPGHGLEWIGDIYPGSGDTNYNGKFKGKATLAADISSNAAYMQLSSLTSEDSAIYYCARSYYRNDAASFAYWGQGTLVTVSA VL: DIVMTQSHKFMSTSVGDRVNITCKASQDVDTAVAWYQQKPSQSPKLLIYWTSTRHTGVPDRFTGSGSGTDFTLTISNVQSEDLADYFCQQFSSYPLTFGAGTKLELK , please? 8.09
